# measurement target: T1, monkey GPC3-His protein (monkey)
# T1 construct: Bought protein; also called monkey GPC3 protein
# protocol details: ELISA, monkey GPC3-His coated; antibody 66.66 nM
quantity: OD450 nm
API note: the answer field is a bare number with no unit suffix.

binder	OD450 nm
hAb001H1aL1b (antibody, human IgG1, V domains shown, Humanized F2.169.2, H1a+L1b) VH: EVQLVESGGGLVQPGGSLRLSCAASGFSFNTNAMNWVRQAPGKGLEWVGRIRSKSNNYATYYADSVKGRFTISRDDSKNSLYLQMNSLKTEDTAVYYCVRDGYYVLFAYWGQGTLVTVSS VL: DIVMTQTPLSLPVTPGEPASISCRFSQSIVNSNANTYLEWFLQKPGQSPQLLIYKVSNRFSGVPDRFSGSGSGTDFTLKISRVEAEDVGVYYCFQGSHVPFTFGQGTKLEIK	2.59
hAb001H1aL1a (antibody, human IgG1, V domains shown, Humanized F2.169.2, H1a+L1a) VH: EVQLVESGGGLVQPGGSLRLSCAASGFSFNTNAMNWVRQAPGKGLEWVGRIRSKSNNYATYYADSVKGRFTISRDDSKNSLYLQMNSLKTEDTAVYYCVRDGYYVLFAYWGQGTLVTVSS VL: DIVMTQTPLSLPVTPGEPASISCRFSQSIVNSDGNTYLEWFLQKPGQSPQLLIYKVSNRFSGVPDRFSGSGSGTDFTLKISRVEAEDVGVYYCFQGSHVPFTFGQGTKLEIK	2.34

Then this binder:
get_value(item= hAb001H1aL1 (antibody, human IgG1, V domains shown, Humanized F2.169.2, H1a+L1) VH: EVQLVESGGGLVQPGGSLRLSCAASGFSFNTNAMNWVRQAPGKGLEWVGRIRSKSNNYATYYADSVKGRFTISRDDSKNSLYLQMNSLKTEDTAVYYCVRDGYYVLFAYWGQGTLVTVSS VL: DIVMTQTPLSLPVTPGEPASISCRFSQSIVNSNGNTYLEWFLQKPGQSPQLLIYKVSNRFSGVPDRFSGSGSGTDFTLKISRVEAEDVGVYYCFQGSHVPFTFGQGTKLEIK , readout=OD450 nm) returns 2.52
